Entry source: paper PMC12592418

assay: ABTS radical scavenging assay; assay type: physicochemical; settings: peptide 100 µg/ml, 5 min in the dark, absorbance 750 nm, mean ± SD, n = 3
No end group written: not given here.
attribute.measured: Antioxidant, ABTS

Task: What value of measured Antioxidant, ABTS is listed for APANGSAF [RB-5] ?
Output: 412.60±0.71 µg ascorbic acid equivalent

Task: Lookup GSEIRSTSDDVL [RB-4]
Output: 539.58±3.43 µg ascorbic acid equivalent

Task: Subsequent entry: SPTPPKNVPF [RB-3]
Output: 274.73±0.27 µg ascorbic acid equivalent

Task: One more substance: DHPTGGL [RB-2]
Output: 284.62±0.75 µg ascorbic acid equivalent

Task: NLRKLKRL [RB-1] , same question.
Output: 367.86±25.39 µg ascorbic acid equivalent

Task: Follow-up entry: RGSKQRQKRQW [RB-7]
Output: 507.53±13.49 µg ascorbic acid equivalent

Task: What would you report for RRLRILL [RB-6] ?
Output: 595.33±18.41 µg ascorbic acid equivalent

* * *

Exercise: for every item that follows, state its recorded Antihypertension (%), percentage inhibition of ACE.
system: angiotensin-converting enzyme (ACE); test: ACE inhibitory activity assay (HHL substrate); format: biochemical; settings: peptide 100 µg/ml, ACE 0.2 U/mL, 5 mM HHL, phosphate buffer pH 6.8, 37 °C, mean ± SD, n = 3; SD
No end group written: not given here.
Expressed in %, but write only the number.

Task: I would be grateful if you could share the reported Antihypertension (%), percentage inhibition of ACE for APANGSAF [RB-5] .
Output: 43.33

Task: Also, GSEIRSTSDDVL [RB-4] please.
Output: 13.33

Task: Also check RGSKQRQKRQW [RB-7]
Output: 60.00

Task: Then this substance: RRLRILL [RB-6]
Output: 46.67

Task: Further, for SPTPPKNVPF [RB-3] ?
Output: 20.00

Task: Then NLRKLKRL [RB-1] ?
Output: 20.00

* * *

tested on: CaCO2 cells; test: MTT cell viability assay, CaCO2; assay type: cell-based, human; conditions: synthetic peptide 100 µg/ml, 24 h, mean ± SD, n = 3
No end group written: not given here.
Classification field: T = Inhibitory percentage, CaCO2 at or over 8%; F = Inhibitory percentage, CaCO2 under 8%.

Task: Given the entry DHPTGGL [RB-2] , answer whether its Inhibitory percentage, CaCO2 meets or surpasses 8%.
Output: T

Task: Another substance to check: APANGSAF [RB-5]
Output: T

Task: Now try LIIPATSTKFL [RB-8] .
Output: T

Task: What do we get for NLRKLKRL [RB-1] ?
Output: F

Task: Same read-out for RGSKQRQKRQW [RB-7] ?
Output: F

Task: Repeat for the following substance: GSEIRSTSDDVL [RB-4]
Output: T

Task: Please give the result for RRLRILL [RB-6] too.
Output: T

* * *

Assay: FRAP ferric ion-reducing antioxidant power assay
Assay type: physicochemical
Conditions: peptide 100 µg/ml, 30 min in the dark, absorbance 593 nm, mean ± SD, n = 3
Experimental: The ferric ion-reducing antioxidant power assay was analyzed according to the method by Rumpf et al.[47] with minor modifications. […] The absorbance was measured at 593 nm using a microplate reader (Rayto RT-2100 C, China). […] Results were expressed as micrograms of ascorbic acid equivalent per gram (µg AAE g^−1).
No end group written: not given here.
attribute.measured: Antioxidant, FRAP

Task: Form field: reported Antioxidant, FRAP of RGSKQRQKRQW [RB-7]
Output: 187.50±1.88 µg ascorbic acid equivalent

Task: Another substance to look at: NLRKLKRL [RB-1]
Output: 189.53±6.59 µg ascorbic acid equivalent

Task: Then RRLRILL [RB-6] ?
Output: 120.46±0.07 µg ascorbic acid equivalent

Task: // query: GSEIRSTSDDVL [RB-4]
Output: 128.47±0.86 µg ascorbic acid equivalent

Task: And what about the substance APANGSAF [RB-5] ?
Output: 87.48±0.20 µg ascorbic acid equivalent

Task: Here is the next substance: SPTPPKNVPF [RB-3]
Output: 58.05±0.09 µg ascorbic acid equivalent

Task: Would you mind doing DHPTGGL [RB-2] as well?
Output: 59.87±0.06 µg ascorbic acid equivalent
